# System: 192522-019-R-J2-PDC complex tumor spheroid viability
# PROTOCOL DESCRIPTION: Anticancer human tumor 192522-019-R-J2-PDC patient-derived colon adenocarcinoma cell line growth inhibition [POLQ]
# EXPERIMENTAL CONDITIONS: curve of first compound; second compound 3.16 µM
READOUT KIND: IC50

# annotated cases, reported IC50 shown
CC[C@@]1(O)C(=O)OCc2c1cc1n(c2=O)Cc2cc3c(CN(C)C)c(O)ccc3nc2-1 + Nc1ccc(C#CCN(C(=O)Cc2ncc(C(F)(F)F)cc2C(F)(F)F)c2ccc(F)cc2)nn1: > 100 nM
CCc1c2c(nc3ccc(O)cc13)-c1cc3c(c(=O)n1C2)COC(=O)[C@]3(O)CC + COC1C(OC(N)=O)C(O)C(Oc2ccc3c(O)c(NC(=O)c4ccc(O)c(CC=C(C)C)c4)c(=O)oc3c2C)OC1(C)C: 42.2 nM
Cn1ncnc1[C@H]1c2n[nH]c(=O)c3cc(F)cc(c23)N[C@@H]1c1ccc(F)cc1 + Nc1ccc(C#CCN(C(=O)Cc2ncc(C(F)(F)F)cc2C(F)(F)F)c2ccc(F)cc2)nn1: > 100 nM
COc1cccc2c1C(=O)c1c(O)c3c(c(O)c1C2=O)CC(O)(C(=O)CO)CC3OC1CC(N)C(O)C(C)O1 (stereo not given) + Nc1ccc(C#CCN(C(=O)Cc2ncc(C(F)(F)F)cc2C(F)(F)F)c2ccc(F)cc2)nn1: > 10000 nM
C#Cc1c(F)ccc2cc(O)cc(-c3ncc4c(N5CC6CCC(C5)N6)nc(OCC56CCCN5CC(F)C6)nc4c3F)c12 (stereo not given) + Nc1ccc(C#CCN(C(=O)Cc2ncc(C(F)(F)F)cc2C(F)(F)F)c2ccc(F)cc2)nn1: > 10000 nM

Fill in: IC50 of COc1cccc(OCCCN)c1-c1cc(Nc2cnc(C#N)cn2)n[nH]1 + Cc1cccc(N(C)C(=O)C2C(O)CCN2c2nc(C)cc(C(F)(F)F)c2C#N)c1 is ___
59.1 nM

What does the data say about its IC50? Entry: COc1cccc(OCCCN)c1-c1cc(Nc2cnc(C#N)cn2)n[nH]1 + COC1C(OC(N)=O)C(O)C(Oc2ccc3c(O)c(NC(=O)c4ccc(O)c(CC=C(C)C)c4)c(=O)oc3c2C)OC1(C)C
18.6 nM

Reported IC50, molecule CNCc1ccc(-c2[nH]c3cc(F)cc4c3c2CCNC4=O)cc1 + COC1C(OC(N)=O)C(O)C(Oc2ccc3c(O)c(NC(=O)c4ccc(O)c(CC=C(C)C)c4)c(=O)oc3c2C)OC1(C)C : ____
> 10000 nM

# get_value(readout='IC50', item= C=CC(=O)N1CCN(c2nc(=O)n(-c3c(C)ccnc3C(C)C)c3nc(-c4c(O)cccc4F)c(F)cc23)C(C)C1 (stereo not given) + COC1C(OC(N)=O)C(O)C(Oc2ccc3c(O)c(NC(=O)c4ccc(O)c(CC=C(C)C)c4)c(=O)oc3c2C)OC1(C)C )
> 10000 nM

// returns reported IC50 for input COc1ccc([C@@H](O)c2cc(-c3ncnc4cc(N5CCOCC5)ccc34)c(F)cc2Cl)nn1 + Cc1cccc(N(C)C(=O)C2C(O)CCN2c2nc(C)cc(C(F)(F)F)c2C#N)c1
> 10000 nM

----------
# System: 192522-019-R-J2-PDC complex tumor spheroid viability
# PROTOCOL DESCRIPTION: Anticancer human tumor 192522-019-R-J2-PDC cell line growth inhibition [POLQ];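 further: spheroids exposed to drugs for seven days before reading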;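 on viability, T/C: 100% = DMSO vehicle control viability in luminescence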
# EXPERIMENTAL CONDITIONS: second compound 1 µM; first compound 0.000316 µM; stronger effect = lower value
viability, T/C listing for selected compounds.
Numbers only here, please. The scale is %.

Previously resolved entries follow.
CC[C@@]1(O)C(=O)OCc2c1cc1n(c2=O)Cc2cc3c(CN(C)C)c(O)ccc3nc2-1 + COC1C(OC(N)=O)C(O)C(Oc2ccc3c(O)c(NC(=O)c4ccc(O)c(CC=C(C)C)c4)c(=O)oc3c2C)OC1(C)C: 103
Cn1ncnc1[C@H]1c2n[nH]c(=O)c3cc(F)cc(c23)N[C@@H]1c1ccc(F)cc1 + COC1C(OC(N)=O)C(O)C(Oc2ccc3c(O)c(NC(=O)c4ccc(O)c(CC=C(C)C)c4)c(=O)oc3c2C)OC1(C)C: 98.8
Cn1ncnc1[C@H]1c2n[nH]c(=O)c3cc(F)cc(c23)N[C@@H]1c1ccc(F)cc1 + Nc1ccc(C#CCN(C(=O)Cc2ncc(C(F)(F)F)cc2C(F)(F)F)c2ccc(F)cc2)nn1: 119
CC[C@@]1(O)C(=O)OCc2c1cc1n(c2=O)Cc2cc3c(CN(C)C)c(O)ccc3nc2-1 + Cc1cccc(N(C)C(=O)C2C(O)CCN2c2nc(C)cc(C(F)(F)F)c2C#N)c1: 106
Cn1ncnc1[C@H]1c2n[nH]c(=O)c3cc(F)cc(c23)N[C@@H]1c1ccc(F)cc1 + Cc1cccc(N(C)C(=O)C2C(O)CCN2c2nc(C)cc(C(F)(F)F)c2C#N)c1: 110

From here, focus on the item given below.
Kindly state the measured viability, T/C obtained for CC[C@@]1(O)C(=O)OCc2c1cc1n(c2=O)Cc2cc3c(CN(C)C)c(O)ccc3nc2-1 + Nc1ccc(C#CCN(C(=O)Cc2ncc(C(F)(F)F)cc2C(F)(F)F)c2ccc(F)cc2)nn1 with 192522-019-R-J2-PDC complex tumor spheroid viability.
113

----------
# Test system: 192522-019-R-J2-PDC complex tumor spheroid viability
# PROTOCOL DESCRIPTION: Anticancer human tumor 192522-019-R-J2-PDC cell line growth inhibition [POLQ];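 further: spheroids exposed to drugs for seven days before reading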;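 on viability, T/C: 100% = DMSO vehicle control viability in luminescence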
# EXPERIMENTAL CONDITIONS: second compound 0.316 µM; first compound 10 µM; stronger effect = lower value
READOUT KIND: viability, T/C

Previously resolved entries follow.
CCc1cc2c(N3CCc4c(cc(Cn5ccnc5)cc4-c4cn(C)nc4C(F)(F)F)C3=O)ccnc2c(OC)n1 + COC1C(OC(N)=O)C(O)C(Oc2ccc3c(O)c(NC(=O)c4ccc(O)c(CC=C(C)C)c4)c(=O)oc3c2C)OC1(C)C: 71.2%
CCc1cc2c(N3CCc4c(cc(Cn5ccnc5)cc4-c4cn(C)nc4C(F)(F)F)C3=O)cc(C)nc2c(OC)n1 + Cc1cccc(N(C)C(=O)C2C(O)CCN2c2nc(C)cc(C(F)(F)F)c2C#N)c1: 72.7%
O=c1[nH]cc(F)c(=O)[nH]1 + COC1C(OC(N)=O)C(O)C(Oc2ccc3c(O)c(NC(=O)c4ccc(O)c(CC=C(C)C)c4)c(=O)oc3c2C)OC1(C)C: 68.7%
COc1cccc2c1C(=O)c1c(O)c3c(c(O)c1C2=O)CC(O)(C(=O)CO)CC3OC1CC(N)C(O)C(C)O1 (stereo unspecified) + Cc1cccc(N(C)C(=O)C2C(O)CCN2c2nc(C)cc(C(F)(F)F)c2C#N)c1: 63.3%
CCCS(=O)(=O)Nc1ccc(F)c(C(=O)c2c[nH]c3ncc(-c4ccc(Cl)cc4)cc23)c1F + Cc1cccc(N(C)C(=O)C2C(O)CCN2c2nc(C)cc(C(F)(F)F)c2C#N)c1: 62.8%

// below: viability, T/C requested for another compound
I am curious: what viability, T/C value has been reported for Nc1ccn(C2OC(CO)C(O)C2(F)F)c(=O)n1 (stereo unspecified) + COC1C(OC(N)=O)C(O)C(Oc2ccc3c(O)c(NC(=O)c4ccc(O)c(CC=C(C)C)c4)c(=O)oc3c2C)OC1(C)C ?
59.5%

----------
Listed here: items and their measured viability, T/C.
# Test system: 192522-019-R-J2-PDC complex tumor spheroid viability
# PROTOCOL DESCRIPTION: Anticancer human tumor 192522-019-R-J2-PDC cell line growth inhibition [POLQ];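 further: spheroids exposed to drugs for seven days before reading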;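 on viability, T/C: 100% = DMSO vehicle control viability in luminescence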
# EXPERIMENTAL CONDITIONS: second compound 0.316 µM; first compound 10 µM; stronger effect = lower value
# Procedure: Multicellular complex tumor spheroid response to Polymerase (POL) inhibitors (novobiocin, ART-558, RP6685) in combination with a variety of drugs and investigational agents in selected tumor cell lines The POL inhibitors (novobiocin, ART-558, and RP6685) were evaluated both individually and in combination with standard of care and investigational anticancer small molecules within a complex spheroid model of solid tumors. . […]
Give your result in % as a bare value.

Take a look at these entries with their results.
COc1cc2cc(C(=O)CCC(=O)O)sc2cc1OC + Nc1ccc(C#CCN(C(=O)Cc2ncc(C(F)(F)F)cc2C(F)(F)F)c2ccc(F)cc2)nn1: 91.8
C=CC(=O)N1CCN(c2nc(=O)n(-c3c(C)ccnc3C(C)C)c3nc(-c4c(O)cccc4F)c(F)cc23)C(C)C1 (stereo not given) + Nc1ccc(C#CCN(C(=O)Cc2ncc(C(F)(F)F)cc2C(F)(F)F)c2ccc(F)cc2)nn1: 100
O=C(c1cc(Cc2n[nH]c(=O)c3ccccc23)ccc1F)N1CCN(C(=O)C2CC2)CC1 + Nc1ccc(C#CCN(C(=O)Cc2ncc(C(F)(F)F)cc2C(F)(F)F)c2ccc(F)cc2)nn1: 95.6
C#Cc1c(F)ccc2cc(O)cc(-c3ncc4c(N5CC6CCC(C5)N6)nc(OCC56CCCN5CC(F)C6)nc4c3F)c12 (stereo not given) + Cc1cccc(N(C)C(=O)C2C(O)CCN2c2nc(C)cc(C(F)(F)F)c2C#N)c1: 72.8

Here is another molecule to look at.
API: value(readout= viability, T/C, system= 192522-019-R-J2-PDC complex tumor spheroid viability, query= C=CC(=O)N1CCN(c2nc(=O)n(-c3c(C)ccnc3C(C)C)c3nc(-c4c(O)cccc4F)c(F)cc23)C(C)C1 (stereo not given) + Cc1cccc(N(C)C(=O)C2C(O)CCN2c2nc(C)cc(C(F)(F)F)c2C#N)c1 )
103
